- Tested on: SK-MEL-5 melanoma
- Test Description: NCI-60 one-dose screen, 48 h
- Experimental Conditions: 10 µM unless noted
Compounds without any hit were thinned out: in the full panel of roughly 83,000, 20% have a hit. Activity calls are given as the source filed them. Rule for the calls: active = growth percent below 10; inactive = the rest.
Can you answer with just one of these options? True = active, False = inactive

Worked examples, 5 compounds total:
Compound | Category Label
NS(=O)(=O)c1ccc(Nc2nc(N/N=C/c3c[nH]c4ccccc34)nc(Nc3ccccc3)n2)cc1 | False
CCOc1ccccc1NC1=C(Cl)C(=O)c2nc(C)ccc2C1=O | True
N/C(=N\C(N)=N\c1nc2ccccc2s1)c1ccc2ccccc2c1 | False
C#C[C@]1(O)CC[C@H]2[C@@H]3CC=C4c5sc(-c6cccc(O)c6)nc5CC[C@]4(C)[C@H]3CC[C@@]21C | True
Oc1ccc(CSc2nnc(-c3ccc(Cl)cc3)n2-c2ccccc2)c2cccnc12 | True

In the following, a different compound is considered.
q: Called result for "COc1ccc(-c2nc3cc(Cl)c(Cl)cc3n2CC(=O)N=Nc2c(O)[nH]c3ccc(OC)cc23)cc1"
a: False

* * *

growth values by entry
- Tested on: NCI-H226 lung
- Test Description: NCI-60 one-dose screen, 48 h (100 = growth as untreated, 0 = no growth, -100 = all killed)
- Experimental Conditions: 10 µM unless noted
This is part of a sample that, as a whole, favours compounds with a hit. Of some 83,000 tested, about 20% had one in any assay.
Report only the number, with the unit % understood.

The examples below pair each entry with its known result.
Compound | Measured Endpoint | Experimental Value
NC(N)=Nc1ccc(Oc2cccc(NC(N)=Nc3ccc(Br)cc3)c2)cn1 | growth | 81.3
CC(=O)C1=C(C)NC(NN)=NC1c1cccc(Cl)c1 (stereo not given) | growth | 103
c1ccc(C(c2nc3ncncc3[nH]2)N2CSc3nc4ncncc4n3C2)cc1 (stereo not given) | growth | 56.2
COC(=O)c1[nH]nc2c1C1(C(=O)c3cccc4cccc1c34)C(C#N)=C(N)O2 (stereo not given) | growth | 91.8
CC(=O)c1nnn(-c2c(C(=O)n3nc(C)cc3C)sc(=S)n2-c2ccccc2)c1C | growth | 95.7

q: growth for "N/C(=N\C(N)=N\c1nc2ccccc2s1)c1ccc(C(F)(F)F)cc1" ?
a: 69.6

q: growth for CC(=O)N1C(=S)NC(=O)C1CC(C)C (stereo not given) ?
a: 100

q: growth for "CC1=NC2=NC(=O)/C(=C3/N=C(C)C=C(c4ccccc4)N3N)NN2C(c2ccccc2)=C1" ?
a: 88.3

q: growth for "CC(=O)c1cc(C(=O)N2c3ccccc3Sc3ccccc32)n2ccc3ccccc3c12" ?
a: 45.4

q: growth for "COc1cc(OC)c(S(N)(=O)=O)cc1C(=O)/C=C/c1ccc(Cl)cc1" ?
a: -26

q: growth for "O=C(CCn1c[n+](CC(=O)c2ccc(-c3ccccc3)cc2)c2ccccc21)Nc1cccc2cccnc12" ?
a: 57

* * *

- Tested on: HCT-15 colon
- Test Description: NCI-60 one-dose screen, 48 h (100 = growth as untreated, 0 = no growth, -100 = all killed)
- Experimental Conditions: 10 µM unless noted
- Protocol: Growth inhibition of the HCT-15 human tumor cell line is measured as a screen for anti-cancer activity. Cells are grown in 96 well plates and exposed to the test compound for 48 hours. Compounds are tested at a single concentration, which is 10^-5 M for most compounds. The reported endpoint is percent growth (GI% or GIPRCNT), where numbers from 0 - 100% represent growth inhibition, and numbers from -100% - 0 represent cell death. For example, a value of 40 represents 60% growth inhibition. […]
This is part of a sample that, as a whole, favours compounds with a hit. Of some 83,000 tested, about 20% had one in any assay.
Returns: string. Value is YES if measured growth is below 20%, and NO if it is greater than or equal to it.

Compound | Category Label
O=S(=O)(Oc1ccc(-c2nnc(Nc3ccccc3)s2)cc1)C(F)(F)C(F)(F)C(F)(F)C(F)(F)C(F)(F)C(F)(F)F | NO
Cc1ccc2c(c1)C13C(=C2Br)CCCN1C(=O)c1ccccc13 (centres undefined) | NO
Cc1ccc2c(c1)C(=O)/C(=C/c1cccc(F)c1)S2 | NO
C=C(C=O)[C@@H]1CC[C@]2(C)[C@H](C(=O)C=C3[C@H]4C[C@](C)(C(=O)OC)CC[C@]4(C)CC[C@]32C)[C@@]1(C)CCC#N | YES

q: Find out if reported growth for "Oc1cccc2ccc(-c3nnc(SCc4ccc(O)c5ncccc45)o3)nc12" is less than 20%
a: YES

q: Find out if reported growth for "CS(=O)(=O)c1ccc(-n2cc(/C=N/O)c(-c3ccccc3)n2)cc1" is less than 20%
a: NO

q: Find out if reported growth for "Cc1ccc(-n2cc(/C=C/C(=O)c3ccc(O)cc3)c(-c3ccc(S(C)(=O)=O)cc3)n2)cc1" is less than 20%
a: NO

q: Find out if reported growth for "N#Cc1cccc(CN2CCC3=C(C2)C(=O)N(Cc2ccc(Cl)cc2)C2=NCCN23)c1" is less than 20%
a: YES

q: Find out if reported growth for Nc1nc(N)c2c(n1)NC(c1ccc(Cl)cc1)CC(c1ccc(Nc3nc(NCCO)nc(N4CCOCC4)n3)cc1)=N2 (centres undefined) is less than 20%
a: NO
